# target-of-assay: Transcriptional activator protein LasR (Pseudomonas aeruginosa (strain ATCC 15692 / PAO1 / 1C / PRS 101 / LMG12228)) (UniProt P25084)
# test-description: Antagonist activity at Pseudomonas aeruginosa LasR expressed in Escherichia coli BL21 DE3 at 100 uM after 4 to 6 hrs by GFP reporter gene assay relative to Br-HSL
property: inhibition (%)

{"structure-string": "O=C(CCCN1C(=O)C=CC1=O)Oc1c(Br)cc(Br)cc1CNC(=O)c1ccccc1[N+](=O)[O-]", "recorded-value": 101}
{"structure-string": "O=C(Cc1cc(Br)cc(Br)c1OCCCCN=C=S)Nc1ccccc1[N+](=O)[O-]", "recorded-value": 61}
{"structure-string": "O=C(CCCN=C=S)Oc1c(Br)cc(Br)cc1CNC(=O)c1ccccc1[N+](=O)[O-]", "recorded-value": 26}
{"structure-string": "O=C(CCN1C(=O)C=CC1=O)Oc1c(Br)cc(Br)cc1CNC(=O)c1ccccc1[N+](=O)[O-]", "recorded-value": 32}
{"structure-string": "O=C(Cc1cc(Br)cc(Br)c1OCCCN=C=S)Nc1ccccc1[N+](=O)[O-]", "recorded-value": 55}
{"structure-string": "O=C(CCl)NCC(=O)Oc1c(Br)cc(Br)cc1CC(=O)Nc1ccccc1[N+](=O)[O-]", "recorded-value": 91}
{"structure-string": "O=C(Cc1cc(Br)cc(Br)c1OC(=O)CCN1C(=O)C=CC1=O)Nc1ccccc1[N+](=O)[O-]", "recorded-value": 98}
{"structure-string": "O=C(Cc1cc(Br)cc(Br)c1OC(=O)CCCN=C=S)Nc1ccccc1[N+](=O)[O-]", "recorded-value": 69}
{"structure-string": "O=C(Cc1cc(Br)cc(Br)c1OC(=O)CN1C(=O)C=CC1=O)Nc1ccccc1[N+](=O)[O-]", "recorded-value": 56}

1. O=C(CCl)NCCC(=O)Oc1c(Br)cc(Br)cc1CC(=O)Nc1ccccc1[N+](=O)[O-]
2. O=C(Cc1cc(Br)cc(Br)c1OC(=O)CCCN1C(=O)C=CC1=O)Nc1ccccc1[N+](=O)[O-]
Q. // compare measured inhibition, left 1 , right 2 , return larger I would appreciate it if you answered with the label of your choice.
A. 1

* * *

# target-of-assay: Transcriptional activator protein LasR (Pseudomonas aeruginosa (strain ATCC 15692 / PAO1 / 1C / PRS 101 / LMG12228), UniProt P25084)
# test-description: Agonist activity at Pseudomonas aeruginosa LasR expressed in Escherichia coli BL21 DE3 after 4 to 6 hrs by GFP reporter gene assay
property: EC50 (nM)

P. O=C(Cc1cc(Br)cc(Br)c1OC(=O)CCN1C(=O)CCC1=O)Nc1ccccc1[N+](=O)[O-]
Q. O=C(CCCN1C(=O)CCC1=O)Oc1c(Br)cc(Br)cc1CNC(=O)c1ccccc1[N+](=O)[O-]
Q. // compare: P vs Q , metric EC50, want the smaller I would appreciate it if you answered with the label of your choice.
A. P
(P: 3.6 nM, Q: 119 nM)

* * *

# target-of-assay: Transcriptional activator protein LasR (Pseudomonas aeruginosa (strain ATCC 15692 / PAO1 / 1C / PRS 101 / LMG12228), UniProt P25084)
# Sequence (P25084 whole entry): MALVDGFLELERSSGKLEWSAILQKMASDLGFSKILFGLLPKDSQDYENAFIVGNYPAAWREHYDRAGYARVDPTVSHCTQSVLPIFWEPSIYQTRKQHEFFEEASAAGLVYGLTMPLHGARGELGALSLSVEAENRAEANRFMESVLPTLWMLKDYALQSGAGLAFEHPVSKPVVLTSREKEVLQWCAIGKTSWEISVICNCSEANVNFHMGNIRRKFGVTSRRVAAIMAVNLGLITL
# test-description: Agonist activity at Pseudomonas aeruginosa LasR
property: pEC50
Please note pEC50 is a logarithmic value: minus log10 of concentration in mol/L. Answer with that number alone.

Q. Fill blank: measured pEC50 of the molecule `O=C(Oc1c(Br)cc(Br)cc1CNC(=O)c1ccccc1[N+](=O)[O-])c1ccccc1Cl` is ____.
A. 7.55
